Experiment Summary: Fast gradient RP-HPLC on C18 column (CHI lipophilicity)
Type: physicochemical
Reported Conditions: C18 column, pH 7.4
Test Readout: CHIC18 pH = 7.4

| Smiles | CHIC18 pH = 7.4 |
| --- | --- |
| O=C1c2ccccc2S(=O)(=O)N1CCCCCCN1CCN(c2ccccn2)CC1 | 82.33 |
| O=C1c2ccccc2S(=O)(=O)N1CCCCCCN1CCN(c2ncccn2)CC1 | 80.76 |
| O=C1c2ccccc2S(=O)(=O)N1CCCCCN1CCN(c2cccc(Cl)c2Cl)CC1 | 112.26 |
| O=C1c2ccccc2S(=O)(=O)N1CCCCCCN1CCN(c2cccc3ccccc23)CC1 | 109.08 |
| O=C1c2ccccc2S(=O)(=O)N1CCCCCCN1CCN(c2cccc(Cl)c2)CC1 | 108.61 |
| O=C1c2ccccc2S(=O)(=O)N1CCCCCN1CCN(c2ncccn2)CC1 | 74.93 |
| COc1cccc(N2CCN(CCCCCCN3C(=O)c4ccccc4S3(=O)=O)CC2)c1 | 94.73 |
| O=C1c2ccccc2S(=O)(=O)N1CCCCCN1CCN(c2ccccc2)CC1 | 89.50 |

Cited source: paper PMC11054528
